Each recorded value in this set is attributed to patent US20260242395A1.

Consider the following molecules and their measured IC50 readings.
- measured_on: CDK6/CyclinD3 (Homo sapiens)
- method_description: CDK6/CyclinD3 kinase inhibitory activity (Caliper mobility shift)
- condition_summary: enzyme 15 nM, ATP 800 μM, 28° C. 30 min; read-out: CDK6/Cyclin D3 IC50
recorded_endpoint: IC50

INSERT INTO measurements (molecule, measured_on, observed_result) VALUES
  ('CC1(C)NCc2c(cnc3c(F)cc(-c4nc(N[C@@H]5CCOC[C@H]5O)ncc4F)cc23)C1O (single isomer, unassigned) [Example 106b]', 'CDK6/CyclinD3 (Homo sapiens)', '10 to 100 nM'),
  ('CNC(C)(C)c1cnc2c(F)cc(-c3nc(N[C@@H]4CCOC[C@H]4O)ncc3Cl)cc2c1', 'CDK6/CyclinD3 (Homo sapiens)', '100 to 1000 nM'),
  ('Cc1nc2c(F)cc(-c3nc(N[C@@H]4CCOC[C@H]4O)ncc3Cl)cc2c(C)c1[C@H](C)O (single isomer, unassigned) [Example 15b]', 'CDK6/CyclinD3 (Homo sapiens)', '10 to 100 nM'),
  ('Cc1nc2c(F)cc(-c3nc(N[C@@H]4CCOC[C@H]4O)ncc3Cl)cc2c2c1CC1(CC1)NC2', 'CDK6/CyclinD3 (Homo sapiens)', '100 to 1000 nM'),
  ('[2H]c1nc(N[C@@H]2CCOC[C@H]2O)nc(-c2cc(F)c3nc(C)c(C(C)O)c(C)c3c2)c1Cl (single isomer, unassigned) [Example 85b]', 'CDK6/CyclinD3 (Homo sapiens)', '10 to 100 nM'),
  ('CC1(C)Cc2cnc3c(F)cc(-c4nc(N[C@@H]5COC[C@H]5O)ncc4Cl)cc3c2CN1', 'CDK6/CyclinD3 (Homo sapiens)', '≥ 1000 nM'),
  ('[2H]c1nc(N[C@@H]2CCOC[C@H]2O)nc(-c2cc(F)c3nc(C)c4c(c3c2)CNC(C)(C)C4)c1F', 'CDK6/CyclinD3 (Homo sapiens)', '100 to 1000 nM');

###

- measured_on: CDK6/CyclinD3 (Homo sapiens, UniProt Q00534)
- Sequence (Q00534 whole entry): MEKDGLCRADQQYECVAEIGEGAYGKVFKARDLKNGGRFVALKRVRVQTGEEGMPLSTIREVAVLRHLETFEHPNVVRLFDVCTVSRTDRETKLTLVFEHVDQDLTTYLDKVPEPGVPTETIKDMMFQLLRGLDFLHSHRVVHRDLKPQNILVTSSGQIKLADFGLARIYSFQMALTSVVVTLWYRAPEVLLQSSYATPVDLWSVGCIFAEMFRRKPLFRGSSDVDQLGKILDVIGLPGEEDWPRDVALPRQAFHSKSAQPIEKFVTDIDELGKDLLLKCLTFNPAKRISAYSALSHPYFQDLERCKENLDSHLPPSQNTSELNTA
- Sequence (P30281 whole entry partner): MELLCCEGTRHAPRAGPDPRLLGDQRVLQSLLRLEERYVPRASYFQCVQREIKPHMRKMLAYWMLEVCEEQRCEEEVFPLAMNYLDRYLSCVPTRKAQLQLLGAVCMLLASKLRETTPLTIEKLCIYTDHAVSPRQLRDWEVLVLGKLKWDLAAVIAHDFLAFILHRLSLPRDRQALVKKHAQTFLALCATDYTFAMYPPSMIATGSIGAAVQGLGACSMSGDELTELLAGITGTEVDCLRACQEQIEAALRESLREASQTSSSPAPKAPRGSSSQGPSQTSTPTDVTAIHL
- method_description: CDK6/CyclinD3 kinase inhibitory activity (Caliper mobility shift)
- condition_summary: enzyme 15 nM, ATP 800 μM, 28° C. 30 min; read-out: CDK6/Cyclin D3 IC50
pIC50: −log10 of the molar value.
recorded_endpoint: pIC50

INSERT INTO measurements (molecule, observed_result) VALUES
  ('[2H]C1([2H])c2cnc3c(F)cc(-c4nc(N[C@@H]5CCOC[C@H]5O)ncc4F)cc3c2CNC1(C)C [Example 110]', '6.00 to 7.00'),
  ('[2H]c1nc(N[C@@H]2CCOC[C@H]2O)nc(-c2cc(F)c3nc(C)c4c(c3c2)CNC(C)(C)C4)c1Cl [Example 103]', '6.00 to 7.00'),
  ('CC1(O)CCc2nc3c(F)cc(-c4nc(N[C@@H]5CCOC[C@H]5O)ncc4Cl)cc3cc21 (single isomer, unassigned) [Example 38a]', '7.00 to 8.00'),
  ('Cc1nc2c(F)cc(-c3nc(N[C@@H]4CCOC[C@H]4O)ncc3F)cc2c(C)c1C(C)O (single isomer, unassigned) [Example 81a]', '7.00 to 8.00'),
  ('CCc1c(C(C)(C)O)nnc2c(F)cc(-c3nc(N[C@@H]4CCOC[C@H]4O)ncc3Cl)cc12 [Example 61]', '6.00 to 7.00'),
  ('O[C@@H]1COCC[C@H]1Nc1ncc(Cl)c(-c2cc(F)c3ncc(C4(O)CC4)c(Cl)c3c2)n1 [Example 44]', '7.00 to 8.00'),
  ('Cc1c(C(C)NC2CC2)cnc2c(F)cc(-c3nc(N[C@@H]4CCOC[C@H]4O)ncc3Cl)cc12 (single isomer, unassigned) [Example 91a]', '6.00 to 7.00'),
  ('CC(C)(N)c1cnc2c(F)cc(-c3nc(N[C@@H]4CCOC[C@H]4O)ncc3Cl)cc2c1 [Example 14]', '6.00 to 7.00'),
  ('CC(C)(O)c1cnc2c(F)cc(-c3nc(Nc4ccc(-c5c[nH]cn5)cn4)ncc3F)cc2c1Cl [Example 52]', '7.00 to 8.00'),
  ('O[C@@H]1COCC[C@H]1Nc1ncc(Cl)c(-c2cc(F)c3ncc4c(c3c2)CCNC4)n1 [Example 8]', '7.00 to 8.00'),
  ('[2H]c1nc(N[C@@H]2CCOC[C@H]2O)nc(-c2cc(F)c3nc(C)c(C(C)NC4CC4)cc3c2)c1F (single isomer, unassigned) [Example 77b]', '6.00 to 7.00'),
  ('Cc1cc(C(C)(C)O)c2cc(-c3nc(N[C@@H]4CCOC[C@H]4O)ncc3Cl)cc(F)c2n1 [Example 75]', '6.00 to 7.00'),
  ('CNC(C)c1cnc2c(F)cc(-c3nc(N[C@@H]4CCOC[C@H]4O)ncc3F)cc2c1C (single isomer, unassigned) [Example 59b]', '6.00 to 7.00'),
  ('Cc1c(C(C)NC2CC2)cnc2c(F)cc(-c3nc(N[C@@H]4CCOC[C@H]4O)ncc3Cl)cc12 (single isomer, unassigned) [Example 91b]', '6.00 to 7.00'),
  ('CC(C)(O)c1cnc2c(F)cc(-c3nc(N[C@@H]4CCOC[C@H]4O)ncc3Cl)cc2c1F [Example 53]', '6.00 to 7.00'),
  ('CNC(C)c1cnc2c(F)cc(-c3nc(N[C@@H]4CCOC[C@H]4O)ncc3Cl)cc2c1 (single isomer, unassigned) [Example 32a]', '6.00 to 7.00'),
  ('COC1c2cnc3c(F)cc(-c4nc(N[C@@H]5CCOC[C@H]5O)ncc4F)cc3c2CNC1(C)C (single isomer, unassigned) [Example 108a]', '≤ 6.00'),
  ('[2H]C1([2H])NC(C)(C)Cc2cnc3c(F)cc(-c4nc(N[C@@H]5CCOC[C@H]5O)ncc4F)cc3c21 [Example 62]', '7.00 to 8.00'),
  ('Cc1c(C(C)(C)O)cnc2c(F)cc(-c3nc(N[C@@H]4CCOC[C@H]4O)ncc3Cl)cc12 [Example 7]', '7.00 to 8.00'),
  ('CC1NCCc2cnc3c(F)cc(-c4nc(N[C@@H]5CCOC[C@H]5O)ncc4Cl)cc3c21 (single isomer, unassigned) [Example 31b]', '6.00 to 7.00'),
  ('CC1(C)NCc2c(cnc3c(F)cc(-c4nc(N[C@@H]5CCOC[C@H]5O)ncc4F)cc23)C1O (single isomer, unassigned) [Example 106a]', '6.00 to 7.00'),
  ('CC1Cc2cnc3c(F)cc(-c4nc(N[C@@H]5CCOC[C@H]5O)ncc4Cl)cc3c2CN1 (single isomer, unassigned) [Example 34a]', '7.00 to 8.00'),
  ('O[C@@H]1COCC[C@H]1Nc1cc(-c2cc(F)c3ncc4c(c3c2)CNCC4)c(Cl)cn1 [Example 25]', '7.00 to 8.00'),
  ('Cc1nc2c(F)cc(-c3nc(N[C@@H]4CCOC[C@H]4O)ncc3Cl)cc2c(Cl)c1C(C)O (single isomer, unassigned) [Example 35b]', '6.00 to 7.00'),
  ('CC(C)(O)c1cnc2c(F)cc(-c3nc(Nc4ccc(C(=O)CO)cn4)ncc3F)cc2c1Cl [Example 80]', '≤ 6.00'),
  ('[2H]c1nc2c(F)cc(-c3nc(N[C@@H]4CCOC[C@H]4O)ncc3F)cc2c(C)c1C(C)(C)O [Example 94]', '7.00 to 8.00'),
  ('COC1c2cnc3c(F)cc(-c4nc(N[C@@H]5CCOC[C@H]5O)ncc4F)cc3c2CNC1(C)C (single isomer, unassigned) [Example 108b]', '6.00 to 7.00');
